Test system: Neuropeptide Y receptor type 2 (Homo sapiens) (UniProt P49146)
Sequence (P49146 whole entry, looked up): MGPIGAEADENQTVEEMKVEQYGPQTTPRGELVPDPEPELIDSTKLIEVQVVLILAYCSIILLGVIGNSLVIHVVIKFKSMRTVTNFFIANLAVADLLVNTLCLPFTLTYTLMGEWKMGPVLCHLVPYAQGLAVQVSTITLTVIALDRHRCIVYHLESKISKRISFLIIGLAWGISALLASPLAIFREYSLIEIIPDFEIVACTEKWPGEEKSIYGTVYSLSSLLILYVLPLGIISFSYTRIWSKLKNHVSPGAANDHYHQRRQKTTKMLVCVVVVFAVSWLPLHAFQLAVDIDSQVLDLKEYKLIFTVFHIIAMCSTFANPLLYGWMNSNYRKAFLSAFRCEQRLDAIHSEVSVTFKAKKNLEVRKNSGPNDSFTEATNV
Assay: human Y2 receptor positive modulation or activation – cell-based, primary screen (AID 1359);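 further: cells stimulated with NPY near EC25 plus isoproterenol at EC100; 0% = vehicle plus submaximal agonist and 100% = vehicle plus saturating agonist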
Condition label: cells expressing NPY-Y2, potentiator/agonist read-out; at 3.6 µM; stronger effect = higher value
Among all 220,000 compounds or so, about 970 (0.44%) were called active. The list comes from a sample in which actives are over-represented; it also holds close analogues and randomly drawn compounds.
Could you please report measured activation for the items listed next?
Answers are plain numbers, in %.

Read the entry CN(C)Cc1c(O)ccc2occ(C(O)c3ccccc3)c12 (stereo not drawn) and write its reported activation. 92.7

Go through the list and state activation for each entry.
1. COC(=O)c1ccc(COc2ccc(/C=N/NC(=O)C(=O)Nc3ccc(OC)cc3)cc2OC)o1
2. Cc1cccc(-c2nc3c(c(SCC(=O)N4CCOCC4)n2)CCCC3)c1
3. Cc1nn(CCOc2ccc(Br)cc2)c(C)c1[N+](=O)[O-]
4. Cc1cccc(NC(=O)C(C)N2C(=O)C3C4CC(C(Br)C4Br)C3C2=O)c1 (stereo not drawn)
5. CSc1nnc(SCc2nc3sc(C(=O)O)c(C)c3c(=O)[nH]2)s1
6. CCOC(=O)/C(=C\c1ccc([N+](=O)[O-])cc1)C(=O)c1cc(C(C)=O)c(Nc2ccccc2)s1
7. CCOc1ccc(S(=O)(=O)N(CC(=O)NCC(F)(F)F)Cc2ccco2)cc1
8. O=C(Nc1ccccc1)Nc1ccc(C(F)(F)F)cn1

-3.63
-7.06
14.5
33.6
1.67
-2.39
-4.11
4.92

----------
Test system: Neuropeptide Y receptor type 2 (Homo sapiens) (UniProt P49146)
Assay: human Y2 receptor positive modulation or activation – cell-based, primary screen (AID 1359)
Condition label: cells expressing NPY-Y2, potentiator/agonist read-out; at 3.6 µM; stronger effect = higher value
In all, about 220,000 compounds went through this assay and about 970 (0.44%) were called active. Many of the other results were omitted from the sample, so actives are more common in it than they were.
I'd appreciate it if you could supply activation values for the items below.
Give bare numbers, in %.

Give activation for each listed item.
1. CC(Nc1ccccc1)c1cccnc1 (stereo unspecified)
2. O=C(c1ccc(F)cc1)n1c(=S)nc2ccccn21
3. COc1ccc2c(c1)C(SCC(=O)NCc1ccccc1)CC(C)(C)O2 (stereo unspecified)
4. Cc1c(S(=O)(=O)NCc2ccccc2)c(=O)n(C)c(=O)n1C

[40.2, 3.79, 15.7, -20.2]

----------
Test system: Neuropeptide Y receptor type 2 (Homo sapiens)
Assay: human Y2 receptor positive modulation or activation – cell-based, primary screen (AID 1359)
Condition label: cells expressing NPY-Y2, potentiator/agonist read-out; at 3.6 µM
The whole screen tested about 220,000 compounds, of which about 970 (0.44%) were called active. Rule as the data show it: active = activation above about 27%; inactive = the rest. Many of the other results were omitted from the sample, so actives are more common in it than they were.
In this exercise, the only acceptable responses are active, inactive

Check out these entries, answers already filled in.
// outcome(item) with item = O=C(Cn1cnc2ccccc2c1=O)NCC1COc2ccccc2O1 (stereo not drawn) inactive

I'd appreciate the recorded outcome for `CN(C)CCCSc1ccccc1NC(=O)/C=C/c1ccccc1` from this test. inactive

I'd appreciate the recorded outcome for `CC(C)(O)C#Cc1ccc(C(=O)N2CCC(C(N)=O)(N3CCCCC3)CC2)cc1` from this test. inactive

Short answer needed: outcome of this test for `CCOC(=O)N1CCN(C(=O)Cn2cnc3ccccc3c2=O)CC1` ? inactive

Hello, I am checking results. What call was entered for `COc1cccc(NC(=S)NC(=O)c2c(Cl)c(C)nn2C)c1` ? inactive

Hello, I am checking results. What call was entered for NC(=O)CCC(NS(=O)(=O)c1ccc(Cl)cc1)C(=O)NCc1ccccc1Cl (stereo not drawn) ? inactive

Now examine the next entry.
Please state the recorded outcome for this molecule: CC(C)OP(=O)(OC(C)C)C(Nc1ccccc1)c1cccc([N+](=O)[O-])c1 (stereo not drawn) inactive

----------
Test system: Neuropeptide Y receptor type 2 (Homo sapiens) (UniProt P49146)
Assay: human Y2 receptor positive modulation or activation – cell-based, primary screen (AID 1359)
Condition label: cells expressing NPY-Y2, potentiator/agonist read-out; at 3.6 µM
Hit rate of the full screen: of about 220,000 compounds, about 970 (0.44%) were called active. Cut-off read from the data, not from the text of the source: active = activation above about 27%; inactive = the rest. The entries come from a sample that favours actives as a whole.
Your response should consist of one outcome taken from active, inactive

Completed entries (count: 3):
What outcome does the record of this test show for `Cc1ccc(CNC(=O)Cn2c(=O)c3sccc3n(Cc3cccc([N+](=O)[O-])c3)c2=O)cc1` ? inactive

Could you please tell me the result logged for O=C1NC(c2ccc(-c3ccccc3[N+](=O)[O-])o2)C(C(=O)c2ccc(Cl)cc2)C(O)(C(F)(F)F)N1 (centres undefined) in this assay? active

Record lookup: outcome of this test for CC(=O)C1C(c2ccc(Cl)cc2)NC(=O)NC1(O)C(F)(F)F (centres undefined) ? inactive

Turning now to a further molecule:
Kindly provide the recorded test outcome for the following molecule: `COc1cccc(CNn2cn[nH]c2=S)c1OCc1ccccc1` inactive

----------
Test system: Neuropeptide Y receptor type 2 (Homo sapiens)
Assay: human Y2 receptor positive modulation or activation – cell-based, primary screen (AID 1359);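 further: cells stimulated with NPY near EC25 plus isoproterenol at EC100; 0% = vehicle plus submaximal agonist and 100% = vehicle plus saturating agonist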
Condition label: cells expressing NPY-Y2, potentiator/agonist read-out; at 3.6 µM
The whole screen tested about 220,000 compounds, of which about 970 (0.44%) were called active. No stated cut-off is given here; in the data, active means activation above about 27%; inactive means the rest. The entries come from a sample that favours actives as a whole.
One label from this list, please: TRUE (active), FALSE (inactive)

Consider the following illustrative entries.
What outcome does the record of this test show for `COc1ccccc1OCCNC(=O)c1cc([N+](=O)[O-])cc([N+](=O)[O-])c1` ? FALSE

Any idea what this test logged for `CCCCC(=O)Nc1cc(C)c2c(=O)oc3ccccc3c2n1` ? FALSE

Identify the outcome logged in this assay for the compound shown: `Cc1ccc(S(=O)(=O)N(Cc2ccc(Cl)cc2)c2ccccc2C(=O)NCc2cccnc2)cc1` FALSE

I'd appreciate the recorded outcome for `O=[N+]([O-])c1cccc(C2=NCCS2)c1` from this test. FALSE

Hey, what did the test say about `COc1ccc2nc(Nc3nc4ccc(NC(C)=O)cc4s3)sc2c1` ? FALSE

I'd appreciate the recorded outcome for CC1CN(/C=C/C(=O)C(F)(F)F)CC(C)O1 (stereo unspecified) from this test. FALSE

Continuing:
Answer briefly: the call reported for `Cc1oc2cc([N+](=O)[O-])c(O)c([N+](=O)[O-])c2c1C(=O)c1ccc(Br)cc1` in this assay. FALSE

Lab log entry: CC(O)CNCCOc1cccc(Oc2ccccc2)c1 (stereo unspecified) — outcome as called in the assay? FALSE

Entry `O=C(CCn1nnc2ccccc2c1=O)N[C@@H](Cc1c[nH]c2ccccc12)C(=O)O` : call = ? FALSE

Identify the outcome logged in this assay for the compound shown: `CCOC(=O)c1c(C)nc2c(c1C)c(=O)oc1ccccc12` FALSE

What is the recorded call for this compound in the test? `Cc1ccccc1-n1nnc2c(=O)oc3ccccc3c21` TRUE

----------
Test system: Neuropeptide Y receptor type 2 (Homo sapiens) (UniProt P49146)
Assay: human Y2 receptor positive modulation or activation – cell-based, primary screen (AID 1359);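 further: cells stimulated with NPY near EC25 plus isoproterenol at EC100; 0% = vehicle plus submaximal agonist and 100% = vehicle plus saturating agonist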
Condition label: cells expressing NPY-Y2, potentiator/agonist read-out; at 3.6 µM; stronger effect = higher value
The campaign covered roughly 220,000 compounds. About 970 (0.44%) were called active. Only a selection was taken, and actives are over-represented in it overall.
Measured endpoint: activation

Before answering, review these 3 worked examples.
// fetch activation for CCCC1OC23CCCCC2C(C#N)(C#N)C1(C#N)C(=N)O3 (stereo not drawn) ; system: Neuropeptide Y receptor type 2 (Homo sapiens) (UniProt P49146) 7.5% (inactive)

// fetch activation for Cc1cccc(C)c1NC(=O)C1(C)c2cccc[n+]2CC(=O)N1Cc1cccs1 (stereo not drawn) ; system: Neuropeptide Y receptor type 2 (Homo sapiens) (UniProt P49146) -2.7% (inactive)

Output reported activation of the compound CCOC12CC(C)(C)CC(C)(CC3=C1C(=O)CC(C)(C)C3)C2 (stereo not drawn) on Neuropeptide Y receptor type 2 (Homo sapiens) (UniProt P49146). -1.87% (inactive)

Report activation for each item below.
1. CC(=O)N1C(=O)/C(=C2\SC(=S)N(NC(=O)c3ccc(O)cc3)C2=O)c2ccccc21
2. O=C(Nc1ccccc1)N1CCN(C2c3ccccc3-c3ccccc32)CC1
3. CN(C)CCNC(CC(=O)Nc1ccc(Cl)c(Cl)c1)C(=O)O (stereo not drawn)
4. CCOc1ccc(C(=O)NC2CCN(CC(=O)NCc3cccs3)CC2)cc1
5. COc1ccc(OCc2cn3c(C)cc(C)nc3n2)cc1

1: -3.06% (inactive); 2: -13.1% (inactive); 3: 4.29% (inactive); 4: 13.5% (inactive); 5: 1.94% (inactive)

----------
Test system: Neuropeptide Y receptor type 2 (Homo sapiens) (UniProt P49146)
Assay: human Y2 receptor positive modulation or activation – cell-based, primary screen (AID 1359);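 further: cells stimulated with NPY near EC25 plus isoproterenol at EC100; 0% = vehicle plus submaximal agonist and 100% = vehicle plus saturating agonist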
Condition label: cells expressing NPY-Y2, potentiator/agonist read-out; at 3.6 µM
The campaign covered roughly 220,000 compounds. About 970 (0.44%) were called active. Rule as the data show it: active = activation above about 27%; inactive = the rest. Shown is part of a subset that was picked to be rich in actives.
Answer with one of the outcomes active, inactive

Look over these answered cases.
Record lookup: outcome of this test for `Cc1cccc(NC(=O)CN2C(=O)CNC2=O)c1` ? inactive

Per the assay record, what outcome was assigned to c1cnc(NC2C3CC4CC(C3)CC2C4)nc1 (centres undefined) ? inactive

What is the recorded call for this compound in the test? `Cc1nccn1CC(=O)N/N=C/c1ccc(O)c(O)c1` inactive

Dear all, I need the recorded test outcome for `Cc1ccccc1CSc1nnc(-c2ccccc2)c(=O)[nH]1` , thank you. inactive

Give the logged outcome of this assay for the following compound: COc1ccc(CN2CCN(Cc3cn(C)nc3-c3ccccc3)CC2CCO)c(C)c1C (centres undefined) inactive

More entries:
How was `CC(C)(C)n1ncc2c(=O)n(Cc3ccc(Cl)cc3)cnc21` classified in this test? inactive

Recorded test call requested for `O=C(c1c(Cl)cccc1Cl)N1CCN(c2cccc3[nH]ccc23)CC1` inactive

Tell me the assay call for CCN(C(=O)COc1cccnc1[N+](=O)[O-])C1CCS(=O)(=O)C1 (centres undefined) please. inactive

The reported measurements were obtained from PubChem BioAssay AID1359.
